// provenance: paper PMC9776381

Biological target: SERCA2a (cardiac SR vesicles) (Sus scrofa, UniProt P11607)
Construct: Cardiac SR vesicles were isolated from fresh porcine left ventricular tissue; from tissue; host or cells: porcine left ventricular tissue, cardiac SR vesicles
Sequence (P11607 1-997 isoform P11607-2): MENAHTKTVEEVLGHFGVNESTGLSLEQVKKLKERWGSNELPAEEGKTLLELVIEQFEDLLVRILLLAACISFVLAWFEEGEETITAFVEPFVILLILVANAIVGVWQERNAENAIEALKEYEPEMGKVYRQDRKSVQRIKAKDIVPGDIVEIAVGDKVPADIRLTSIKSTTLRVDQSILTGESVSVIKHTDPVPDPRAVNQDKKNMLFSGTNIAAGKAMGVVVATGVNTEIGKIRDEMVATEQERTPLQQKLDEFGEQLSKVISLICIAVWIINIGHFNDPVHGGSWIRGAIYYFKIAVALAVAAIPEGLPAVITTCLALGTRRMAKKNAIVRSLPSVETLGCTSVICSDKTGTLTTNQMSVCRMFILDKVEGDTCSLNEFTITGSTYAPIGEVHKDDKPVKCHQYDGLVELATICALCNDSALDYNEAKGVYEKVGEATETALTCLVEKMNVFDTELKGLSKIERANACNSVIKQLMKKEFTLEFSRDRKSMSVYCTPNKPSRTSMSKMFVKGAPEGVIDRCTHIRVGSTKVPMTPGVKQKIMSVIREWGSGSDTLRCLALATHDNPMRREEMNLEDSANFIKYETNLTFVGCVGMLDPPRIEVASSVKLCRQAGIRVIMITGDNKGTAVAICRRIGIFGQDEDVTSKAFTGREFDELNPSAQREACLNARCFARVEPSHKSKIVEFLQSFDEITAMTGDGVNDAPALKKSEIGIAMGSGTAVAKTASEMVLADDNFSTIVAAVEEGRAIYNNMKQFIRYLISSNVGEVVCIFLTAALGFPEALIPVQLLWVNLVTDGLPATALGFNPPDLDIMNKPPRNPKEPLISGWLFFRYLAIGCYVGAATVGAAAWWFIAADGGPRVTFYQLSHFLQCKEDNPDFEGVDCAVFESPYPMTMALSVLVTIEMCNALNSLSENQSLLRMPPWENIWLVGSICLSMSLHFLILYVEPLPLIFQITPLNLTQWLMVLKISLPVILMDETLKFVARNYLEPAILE
Test: Oxalate-supported Ca2+-uptake assay, cardiac SR (CRC at pCa 5.4)
Assay type: biochemical, porcine
Settings: maximal effect of CRC, pCa 5.4, mean ± SD, n = 3; dash = no observable effect
MEASUREMENT KIND: Cardiac SR Ca^2+ Uptake Activity Percent Increase (%)

Some compounds with known Cardiac SR Ca^2+ Uptake Activity Percent Increase results, for comparison:
Cc1ccc(CN(C)C(=O)CC(c2ccccc2)c2ccc3c(c2)OCO3)o1 (centres unmarked); 16
Cc1ccsc1CN(C)C(=O)CC(c1ccccc1)c1ccc2c(c1)OCO2 (centres unmarked); 18
CCCCN(Cc1ccsc1)C(=O)c1occc1C; 17

I: OCc1ccccc1-c1ccc(-c2nc(CCc3ccccc3)no2)cn1
II: CN(Cc1ccccc1)c1ncccc1CNc1ncccc1Cl
Task item: Param metric = Cardiac SR Ca^2+ Uptake Activity Percent Increase; output whichever of I , II has the minimum value. I would appreciate it if you answered with the label of your choice.
Reply: I
(I: 8%, II: 21%)

* * *

Molecular target: SERCA2a (cardiac SR vesicles) (Sus scrofa)
Construct: Cardiac SR vesicles were isolated from fresh porcine left ventricular tissue; from tissue; host or cells: porcine left ventricular tissue, cardiac SR vesicles
Experiment: NADH-coupled Ca-ATPase activity assay, cardiac SR (CRC at pCa 5.4)
Type: biochemical, porcine
Conditions: pCa 5.4, mean ± SD, n = 3
pEC50: −log10 of the molar value.
MEASUREMENT KIND: pEC50

Some molecules with known pEC50 results, for comparison:
CCc1cccc(NC(=O)CCC(=O)NCc2snnc2C)c1; 5.03
CCCSCC(=O)N(Cc1ccc(C)s1)C1CCCC1; 5.17
CCOC(=O)C1(Cc2cccc(C(F)(F)F)c2)CCN(C(=O)c2sccc2C)CC1; 5.47
COc1ncc(CN(Cc2sccc2C)CC(C)C)cn1; 5.54

P: Cc1ccc(CN(C)C(=O)CC(c2ccccc2)c2ccc3c(c2)OCO3)o1 (centres unmarked)
Q: COc1ccc(CCNC(=O)c2oc3c(Cl)cc(C)cc3c2C)cc1
Task item: Param metric = pEC50; output whichever of P , Q has the minimum value. I would appreciate it if you answered with the label of your choice.
Reply: P

I: CCOC(=O)C1(CCc2ccccc2)CCN(C(=O)c2occc2C)CC1
II: CCCCN(Cc1ccsc1)C(=O)c1occc1C
III: COc1ccccc1CNc1nc(C(C)(C)C)nc2c1cnn2C
IV: CN(Cc1ccccc1)c1ncccc1CNc1ncccc1Cl
Task item: Thanks in advance: please rank these 4 entries by pEC50, highest to lowest. The labels, placed in the requested order, form the answer.
Reply: IV, III, I, II

* * *

Target: SERCA2a (cardiac SR vesicles) (Sus scrofa, UniProt P11607)
Construct: Cardiac SR vesicles were isolated from fresh porcine left ventricular tissue; from tissue; host or cells: porcine left ventricular tissue, cardiac SR vesicles
Assay: NADH-coupled Ca-ATPase activity assay, cardiac SR (CRC at pCa 5.4)
Format: biochemical, porcine
Conditions: maximal effect of CRC, pCa 5.4, mean ± SD, n = 3
MEASUREMENT KIND: Cardiac SR ATPase Activity Percent Increase (%)

COc1ncc(CN(Cc2sccc2C)CC(C)C)cn1; 33
CCOC(=O)C1(Cc2cccc(C(F)(F)F)c2)CCN(C(=O)c2sccc2C)CC1; 43
COc1ccccc1CNc1nc(C(C)(C)C)nc2c1cnn2C; 56

I: CCOC(=O)C1(CCc2ccccc2)CCN(C(=O)c2occc2C)CC1
II: CCCN(Cc1ccccc1OC)C(=O)c1cc(C)c(C)s1
III: OCc1ccccc1-c1ccc(-c2nc(CCc3ccccc3)no2)cn1
IV: COc1cccc(-c2nn(-c3ccccc3)cc2CN(Cc2c(C)nn(C)c2C)C2CC2)c1
Task item: In this exercise, place the 4 compounds in ascending sequence of their recorded Cardiac SR ATPase Activity Percent Increase. The labels, placed in the requested order, form the answer.
Reply: III, IV, II, I
(III: 22%, IV: 37%, II: 58%, I: 85%)
